Data origin, for the record: patent US11472778B2

# System: HCV replicon R155K variant in Huh7 cells
# Assay Comment: microbe, parasite or virus in culture
# Type: cell-based, Hepatitis C virus
# Condition Summary: Table 4; relative to WT replicon
Metric: Replicon EC50 (Fold change) R155K

>>> readout_value("COc1ccc2nc(C(F)(F)F)c(O[C@@H]3C[C@H]4C(=O)N[C@]5(C(=O)NS(=O)(=O)C6CC6)C[C@H]5/C=C\\CCCCC[C@H](NC(=O)OC5CCCC5)C(=O)N4C3)nc2c1 [Compound 22d]")
"(2) fold"
>>> readout_value("COc1ccc2nc(C(F)(F)F)c(O[C@@H]3C[C@H]4C(=O)N[C@]5(C(=O)NS(=O)(=O)C6(C)CC6)C[C@H]5/C=C\\CCCCC[C@H](NC(=O)OC(C)(C)C)C(=O)N4C3)nc2c1 [Compound 19d]")
"(2) fold"
>>> readout_value("COc1ccc2nc(Cl)c(O[C@@H]3C[C@H]4C(=O)N[C@]5(C(=O)NS(=O)(=O)C6(C)CC6)C[C@H]5/C=C\\CCCCC[C@H](NC(=O)OC(C)(C)C)C(=O)N4C3)nc2c1 [Compound 19c]")
"(2) fold"

----------
# Test system: HCV replicon R155K variant in Huh7 cells
# Assay Comment: microbe, parasite or virus in culture
# Assay type: cell-based, Hepatitis C virus
# Condition Summary: Table 4; relative to WT replicon
Metric: Replicon EC50 (Fold change) R155K

>>> readout_value("COc1ccc2nc(Cl)c(O[C@@H]3C[C@H]4C(=O)N[C@]5(C(=O)NS(=O)(=O)C6CC6)C[C@H]5/C=C\\CCCCC[C@H](NC(=O)OC5CCCC5)C(=O)N4C3)nc2c1 [Compound 22c]")
"(4) fold"
>>> readout_value("CCc1nc2ccc(OC)cc2nc1O[C@@H]1C[C@H]2C(=O)N[C@]3(C(=O)NS(=O)(=O)C4(C)CC4)C[C@H]3/C=C\\CCCCC[C@H](NC(=O)OC(C)(C)C)C(=O)N2C1 [Compound 19a]")
"(4) fold"

----------
# Experimental Target: wild-type GT1a NS3/4A protease (UniProt P27958, C1185S, species not given)
# Construct: P4/P4-P5 modified macrocycles
# Assay type: biochemical, Hepatitis C virus
# Condition Summary: read-out: Ki (nM) GT1a WT; Table 6; P4/P4-P5 modified macrocycles
# Procedure: For each assay, 2 nM of NS3/4A protease (GT1, D168A and GT3) was pre-incubated at room temperature for 1 h with increasing concentration of inhibitors in assay buffer [50 mM Tris, 5% glycerol, 10 mM DTT, 0.6 mM LDAO, and 4% dimethyl sulfoxide]. Inhibition assays were performed in nonbinding surface 96-well black half-area plates (Corning) in a reaction volume of 60 μt. […] Three independent data sets were collected for each inhibitor with each protease construct. […]
Metric: log10 of Ki (log10 of the value in nM)

>>> readout_value("COc1ccc2nc(C)c(O[C@@H]3C[C@H]4C(=O)N[C@]5(C(=O)NS(=O)(=O)C6(C)CC6)C[C@H]5/C=C\\CCCCC[C@H](NC(=O)OC5(C)CCCC5)C(=O)N4C3)nc2c1")
0.25
>>> readout_value("COc1ccc2nc(C)c(O[C@@H]3C[C@H]4C(=O)N[C@]5(C(=O)NS(=O)(=O)C6(C)CC6)C[C@H]5/C=C\\CCCCC[C@H](NC(=O)OC(C)(C)C)C(=O)N4C3)nc2c1 [Compound 19b]")
0.56
>>> readout_value("COC(=O)N[C@H](C(=O)N[C@H]1CCCCC/C=C\\[C@@H]2C[C@@]2(C(=O)NS(=O)(=O)C2(C)CC2)NC(=O)[C@@H]2C[C@@H](Oc3nc4cc(OC)ccc4nc3C)CN2C1=O)C(C)(C)C")
1.47
>>> readout_value("COC(=O)N[C@H](C(=O)N[C@H]1CCCCC/C=C\\[C@@H]2C[C@@]2(C(=O)NS(=O)(=O)C2(C)CC2)NC(=O)[C@@H]2C[C@@H](Oc3nc4cc(OC)ccc4nc3C)CN2C1=O)C(C)C")
1.11
>>> readout_value("CC[C@H](C)[C@H](NC(C)=O)C(=O)N[C@H]1CCCCC/C=C\\[C@@H]2C[C@@]2(C(=O)NS(=O)(=O)C2(C)CC2)NC(=O)[C@@H]2C[C@@H](Oc3nc4cc(OC)ccc4nc3C)CN2C1=O")
0.85
>>> readout_value("COc1ccc2nc(C)c(O[C@@H]3C[C@H]4C(=O)N[C@]5(C(=O)NS(=O)(=O)C6(C)CC6)C[C@H]5/C=C\\CCCCC[C@H](NC(=O)[C@@H](NC(C)=O)C(C)(C)C)C(=O)N4C3)nc2c1")
1.38
>>> readout_value("COC(=O)N[C@H](C(=O)N[C@H]1CCCCC/C=C\\[C@@H]2C[C@@]2(C(=O)NS(=O)(=O)C2(C)CC2)NC(=O)[C@@H]2C[C@@H](Oc3nc4cc(OC)ccc4nc3C)CN2C1=O)C1CCCC1")
0.55
>>> readout_value("COc1ccc2nc(C)c(O[C@@H]3C[C@H]4C(=O)N[C@]5(C(=O)NS(=O)(=O)C6(C)CC6)C[C@H]5/C=C\\CCCCC[C@H](NC(=O)[C@@H](NC(C)=O)C(C)C)C(=O)N4C3)nc2c1")
1.05
